The reported numbers originate from patent US12012403B2.

test.target: human CCR6 (Homo sapiens)
assay.text: Migration (chemotaxis) assay, hCCR6-transfected Ba/F3 cells toward CCL20
condition.description: hCCR6-transfected Ba/F3 cells in human serum; recombinant human CCL20 10 nM; 37° C. 45 minutes; read-out: Potency (IC50 value in the migration assay)

>  <compound>
O=S(=O)(c1ccc(-c2ccc3[nH]nc(C(F)(F)F)c3c2)cc1)N1CCC(Nc2ccc(C(F)(F)F)cn2)CC1 [Example 1.087]

>  <IC50>
5 to 100 nM

$$$$
>  <compound>
NC(=O)[C@H]1[C@@H]2CN(c3ccc(S(=O)(=O)N4CCC(Nc5ccc(C(F)(F)F)cn5)CC4)cc3)C[C@@H]21 [Example 1.162]

>  <IC50>
100 to 10000 nM

$$$$
>  <compound>
CN1CCC2(CC1)C(=O)Nc1ccc(-c3ccc(S(=O)(=O)N4CCC(Nc5ccc(C(F)(F)F)cn5)CC4)cc3)cc12 [Example 1.006]

>  <IC50>
100 to 10000 nM

$$$$
>  <compound>
O=C1NC(=O)C2(CCN(c3ccc(S(=O)(=O)N4CCC(Nc5ccc(C(F)(F)F)cn5)CC4)cc3)CC2)N1 [Example 1.151]

>  <IC50>
< 5 nM

$$$$
>  <compound>
O=C1Cc2cc(-c3ccc(S(=O)(=O)N4CCC(Nc5ccc(C(F)(F)F)cn5)CC4)cc3)cnc2N1 [Example 1.073]

>  <IC50>
< 5 nM

$$$$
>  <compound>
O=c1[nH]c2ccc(-c3ccc(S(=O)(=O)N4CCC(Nc5ccc(C(F)(F)F)cn5)CC4)cc3)cc2[nH]1 [Example 1.115]

>  <IC50>
5 to 100 nM

$$$$
>  <compound>
NC(=O)NC1CC2(C1)CN(c1ccc(S(=O)(=O)N3CCC(Nc4ccc(C(F)(F)F)cn4)CC3)cc1)C2 [Example 1.159]

>  <IC50>
100 to 10000 nM

$$$$

---

test.target: human CCR6 (Homo sapiens)
assay.text: Migration (chemotaxis) assay, hCCR6-transfected Ba/F3 cells toward CCL20
condition.description: hCCR6-transfected Ba/F3 cells in human serum; recombinant human CCL20 10 nM; 37° C. 45 minutes; read-out: Potency (IC50 value in the migration assay)

>  <smiles.code>
O=S(=O)(c1ccc(N2CCC(c3nnn[nH]3)CC2)cc1)N1CCC(Nc2ccc(C(F)(F)F)cn2)CC1

>  <test.target>
human CCR6 (Homo sapiens)

>  <IC50>
100 to 10000 nM

$$$$
>  <smiles.code>
O=C1NCCc2nc(-c3ccc(S(=O)(=O)N4CCC(Nc5ccc(C(F)(F)F)cn5)CC4)cc3)sc21

>  <test.target>
human CCR6 (Homo sapiens)

>  <IC50>
5 to 100 nM

$$$$
>  <smiles.code>
CC(=O)NCCC1CCN(c2ccc(S(=O)(=O)N3CCC(Nc4ccc(C(F)(F)F)cn4)CC3)cc2)CC1

>  <test.target>
human CCR6 (Homo sapiens)

>  <IC50>
5 to 100 nM

$$$$
>  <smiles.code>
COc1n[nH]c2ccc(-c3ccc(S(=O)(=O)N4CCC(Nc5ccc(C(F)(F)F)cn5)CC4)cc3)cc12

>  <test.target>
human CCR6 (Homo sapiens)

>  <IC50>
5 to 100 nM

$$$$

---

Listed below: IC50 values for each entry.
test.target: human CCR6 (Homo sapiens, UniProt P51684)
Sequence (P51684 1-374): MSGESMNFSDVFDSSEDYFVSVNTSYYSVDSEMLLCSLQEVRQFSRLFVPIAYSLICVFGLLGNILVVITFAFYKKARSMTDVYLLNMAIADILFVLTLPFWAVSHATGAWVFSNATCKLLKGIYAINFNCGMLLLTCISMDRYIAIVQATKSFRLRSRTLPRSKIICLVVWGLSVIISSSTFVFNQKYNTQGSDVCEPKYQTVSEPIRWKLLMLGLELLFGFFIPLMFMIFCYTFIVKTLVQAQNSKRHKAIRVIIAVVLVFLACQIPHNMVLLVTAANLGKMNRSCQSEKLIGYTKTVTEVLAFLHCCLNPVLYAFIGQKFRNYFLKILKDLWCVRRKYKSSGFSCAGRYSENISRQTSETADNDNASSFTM
assay.text: Migration (chemotaxis) assay, hCCR6-transfected Ba/F3 cells toward CCL20
condition.description: hCCR6-transfected Ba/F3 cells in human serum; recombinant human CCL20 10 nM; 37° C. 45 minutes; read-out: Potency (IC50 value in the migration assay)
reported.property: IC50

>  <compound>
CC(C)(C)[Si](C)(C)OCCN1Cc2ccc(-c3ccc(S(=O)(=O)N4CCC(Nc5ccc(C(F)(F)F)cn5)CC4)cc3)cc2C1=O [Example 1.038]

>  <recorded.measurement>
5 to 100 nM

$$$$
>  <compound>
N#Cc1cn(CC(N)=O)c2ncc(-c3ccc(S(=O)(=O)N4CCC(Nc5ccc(C(F)(F)F)cn5)CC4)cc3)cc12 [Example 1.039]

>  <recorded.measurement>
< 5 nM

$$$$
>  <compound>
O=C1Cc2cc(-c3ccc(S(=O)(=O)N4CCC(Nc5ccc(C(F)(F)F)cn5)CC4)cc3)ccc2CN1 [Example 1.012]

>  <recorded.measurement>
< 5 nM

$$$$
>  <compound>
NCCC1CCN(c2ccc(S(=O)(=O)N3CCC(Nc4ccc(C(F)(F)F)cn4)CC3)cc2)CC1 [Example 1.132]

>  <recorded.measurement>
100 to 10000 nM

$$$$
>  <compound>
NC(=O)N1Cc2ccc(-c3ccc(S(=O)(=O)N4CCC(Nc5ccc(C(F)(F)F)cn5)CC4)cc3)cc2C1 [Example 1.054]

>  <recorded.measurement>
< 5 nM

$$$$
>  <compound>
NC(=O)N1CCC2(CC1)C(=O)Nc1ccc(-c3ccc(S(=O)(=O)N4CCC(Nc5ccc(C(F)(F)F)cn5)CC4)cc3)cc12 [Example 1.025]

>  <recorded.measurement>
5 to 100 nM

$$$$
>  <compound>
Nc1nc2cc(-c3ccc(S(=O)(=O)N4CCC(Nc5ccc(C(F)(F)F)cn5)CC4)cc3)ccc2o1 [Example 1.118]

>  <recorded.measurement>
< 5 nM

$$$$
>  <compound>
NC(=O)CN1CCN(c2ccc(S(=O)(=O)N3CCC(Nc4ccc(C(F)(F)F)cn4)CC3)cc2)CC1 [Example 1.122]

>  <recorded.measurement>
5 to 100 nM

$$$$
>  <compound>
Nc1nc2ccc(-c3ccc(S(=O)(=O)N4CCC(Nc5ccc(C(F)(F)F)cn5)CC4)cc3)cc2o1 [Example 1.086]

>  <recorded.measurement>
< 5 nM

$$$$
>  <compound>
NCCN1C(=O)C2(CC2)c2cc(-c3ccc(S(=O)(=O)N4CCC(Nc5ccc(C(F)(F)F)cn5)CC4)cc3)cnc21 [Example 1.002]

>  <recorded.measurement>
5 to 100 nM

$$$$
>  <compound>
Cc1n[nH]c2ccc(-c3ccc(S(=O)(=O)N4CCC(Nc5ccc(C(F)(F)F)cn5)CC4)cc3)cc12 [Example 1.094]

>  <recorded.measurement>
5 to 100 nM

$$$$
>  <compound>
O=c1[nH]c2ncc(-c3ccc(S(=O)(=O)N4CCC(Nc5ccc(C(F)(F)F)cn5)CC4)cc3)cc2o1 [Example 1.065]

>  <recorded.measurement>
5 to 100 nM

$$$$
>  <compound>
O=S(=O)(c1ccc(N2CCn3ccnc3C2)cc1)N1CCC(Nc2ccc(C(F)(F)F)cn2)CC1 [Example 1.229]

>  <recorded.measurement>
100 to 10000 nM

$$$$
>  <compound>
N#Cc1cc2cc(-c3ccc(S(=O)(=O)N4CCC(Nc5ccc(C(F)(F)F)cn5)CC4)cc3)ccc2[nH]1 [Example 1.113]

>  <recorded.measurement>
5 to 100 nM

$$$$
>  <compound>
O=C1NS(=O)(=O)c2cc(-c3ccc(S(=O)(=O)N4CCC(Nc5ccc(C(F)(F)F)cn5)CC4)cc3)ccc21 [Example 1.062]

>  <recorded.measurement>
5 to 100 nM

$$$$
>  <compound>
O=c1[nH]ncc2cc(-c3ccc(S(=O)(=O)N4CCC(Nc5ccc(C(F)(F)F)cn5)CC4)cc3)ccc12 [Example 1.059]

>  <recorded.measurement>
< 5 nM

$$$$
>  <compound>
NC(=O)c1cnc2ccc(-c3ccc(S(=O)(=O)N4CCC(Nc5ccc(C(F)(F)F)cn5)CC4)cc3)cn12 [Example 1.085]

>  <recorded.measurement>
< 5 nM

$$$$
>  <compound>
O=C1Nc2ccc(-c3ccc(S(=O)(=O)N4CCC(Nc5ccc(C(F)(F)F)cn5)CC4)cc3)cc2C12CCOCC2 [Example 1.036]

>  <recorded.measurement>
< 5 nM

$$$$
>  <compound>
O=C1CO[C@@H]2CCN(c3ccc(S(=O)(=O)N4CCC(Nc5ccc(C(F)(F)F)cn5)CC4)cc3)C[C@@H]2N1 (racemic) [Example 1.170]

>  <recorded.measurement>
100 to 10000 nM

$$$$
>  <compound>
O=C1NCc2ccc(-c3ccc(S(=O)(=O)N4CCC(Nc5ccc(C(F)(F)F)cn5)CC4)cc3)cc21 [Example 1.093]

>  <recorded.measurement>
< 5 nM

$$$$
>  <compound>
N#Cc1c[nH]c2ncc(-c3ccc(S(=O)(=O)N4CCC(Nc5ccc(C(F)(F)F)cc5)CC4)cc3)cc12 [Example 1.056]

>  <recorded.measurement>
< 5 nM

$$$$
>  <compound>
Cn1nc(C#N)c2cc(-c3ccc(S(=O)(=O)N4CCC(Nc5ccc(C(F)(F)F)cn5)CC4)cc3)ccc21 [Example 1.091]

>  <recorded.measurement>
< 5 nM

$$$$
>  <compound>
O=S(=O)(c1ccc(N2CCC(CO)CC2)cc1)N1CCC(Nc2ccc(C(F)(F)F)cn2)CC1 [Example 1.188]

>  <recorded.measurement>
5 to 100 nM

$$$$
>  <compound>
CC(=O)N[C@H]1CCCN(c2ccc(S(=O)(=O)N3CCC(Nc4ccc(C(F)(F)F)cn4)CC3)cc2)C1 [Example 1.193]

>  <recorded.measurement>
100 to 10000 nM

$$$$
>  <compound>
O=C1Nc2ncc(-c3ccc(S(=O)(=O)N4CCC(Nc5ccc(C(F)(F)F)cn5)CC4)cc3)cc2C12CCOCC2 [Example 1.064]

>  <recorded.measurement>
< 5 nM

$$$$
>  <compound>
N#Cc1c[nH]c2ccc(-c3ccc(S(=O)(=O)N4CCC(Nc5ccc(C(F)(F)F)cn5)CC4)cc3)cc12 [Example 1.114]

>  <recorded.measurement>
< 5 nM

$$$$
>  <compound>
CS(=O)(=O)NCC1CCN(c2ccc(S(=O)(=O)N3CCC(Nc4ccc(C(F)(F)F)cn4)CC3)cc2)CC1 [Example 1.141]

>  <recorded.measurement>
5 to 100 nM

$$$$
